Target System: recombinant human MMP-10 (Homo sapiens)
Sequence (P09238 99-476): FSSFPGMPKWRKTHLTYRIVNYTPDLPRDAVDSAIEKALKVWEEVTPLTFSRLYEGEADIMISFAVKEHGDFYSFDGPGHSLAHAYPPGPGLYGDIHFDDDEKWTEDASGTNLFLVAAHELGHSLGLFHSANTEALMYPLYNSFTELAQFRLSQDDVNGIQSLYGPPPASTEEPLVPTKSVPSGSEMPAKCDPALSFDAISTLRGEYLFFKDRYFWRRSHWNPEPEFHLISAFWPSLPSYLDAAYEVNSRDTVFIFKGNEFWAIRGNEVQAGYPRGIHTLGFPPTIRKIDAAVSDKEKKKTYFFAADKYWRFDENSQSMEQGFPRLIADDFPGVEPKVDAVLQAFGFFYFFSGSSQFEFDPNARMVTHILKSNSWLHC
Assay Summary: MMP selectivity assay, MMP-10
Test Settings: Table 2 selectivity profile
pIC50: −log10 of the molar value.
molecules and their reported pIC50

The cases that follow already have their pIC50 on record.
{"Molecule": "O=C1NC(=O)C(c2cnccc2Sc2ccc(OCc3cccc(O)c3)cc2)N1 (centres unmarked)", "Target System": "recombinant human MMP-10 (Homo sapiens)", "pIC50": "< 5.00"}
{"Molecule": "Cc1cc(COc2ccc(Sc3ccsc3C3NC(=O)NC3=O)cc2)ccn1 (centres unmarked)", "Target System": "recombinant human MMP-10 (Homo sapiens)", "pIC50": "6.00 to 7.00"}
{"Molecule": "O=C1NC(=O)C(c2sccc2Sc2ccc(OCc3cccc(CO)c3)cc2)N1 (centres unmarked)", "Target System": "recombinant human MMP-10 (Homo sapiens)", "pIC50": "5.00 to 6.00"}
{"Molecule": "CCC1(c2cnccc2Sc2ccc(OCc3cccc(C)c3)cc2)NC(=O)NC1=O (centres unmarked)", "Target System": "recombinant human MMP-10 (Homo sapiens)", "pIC50": "5.00 to 6.00"}

Kindly consider the entry below.
Input line: Any idea what pIC50 was measured for Cc1cc(COc2ccc(Sc3ncoc3C3NC(=O)NC3=O)cc2)ccn1 (centres unmarked) ?
Output line: 5.00 to 6.00

---

molecules and their reported pIC50
Target System: recombinant human MMP-2 (Homo sapiens, UniProt P08253)
Sequence (P08253 110-660): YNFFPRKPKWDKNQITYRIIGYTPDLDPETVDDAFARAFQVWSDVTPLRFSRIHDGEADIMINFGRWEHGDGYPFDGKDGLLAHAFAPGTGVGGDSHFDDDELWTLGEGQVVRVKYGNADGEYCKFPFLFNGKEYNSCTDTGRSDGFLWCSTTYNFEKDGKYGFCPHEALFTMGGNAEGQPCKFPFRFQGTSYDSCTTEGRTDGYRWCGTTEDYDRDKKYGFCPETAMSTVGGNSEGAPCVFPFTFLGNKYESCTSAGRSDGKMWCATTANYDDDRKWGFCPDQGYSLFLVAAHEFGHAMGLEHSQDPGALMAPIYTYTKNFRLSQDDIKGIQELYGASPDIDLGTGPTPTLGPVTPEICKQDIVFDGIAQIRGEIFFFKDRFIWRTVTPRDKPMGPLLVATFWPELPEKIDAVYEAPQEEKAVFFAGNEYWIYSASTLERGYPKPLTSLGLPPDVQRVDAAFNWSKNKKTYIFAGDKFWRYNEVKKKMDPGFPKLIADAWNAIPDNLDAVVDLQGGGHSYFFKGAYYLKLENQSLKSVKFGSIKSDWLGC
Assay Summary: MMP selectivity assay, MMP-2
Test Settings: Table 2 selectivity profile
pIC50: −log10 of the molar value.

The cases that follow already have their pIC50 on record.
{"Molecule": "CCC1(c2cnccc2Sc2ccc(OCc3cccc(C)c3)cc2)NC(=O)NC1=O (stereo not drawn)", "pIC50": "5.00 to 6.00"}
{"Molecule": "O=C1NC(=O)C(c2cnccc2Sc2ccc(OCc3cccc(O)c3)cc2)N1 (stereo not drawn)", "pIC50": "5.00 to 6.00"}
{"Molecule": "Cc1cc(COc2ccc(Sc3ncoc3C3NC(=O)NC3=O)cc2)ccn1 (stereo not drawn)", "pIC50": "6.00 to 7.00"}
{"Molecule": "Cc1cc(COc2ccc(Sc3ncn(C)c3C3NC(=O)NC3=O)cc2)ccn1 (stereo not drawn)", "pIC50": "6.00 to 7.00"}
{"Molecule": "O=C1NC(=O)C(c2ccncc2Sc2ccc(OCc3cccc(CO)c3)cc2)N1 (stereo not drawn)", "pIC50": "5.00 to 6.00"}

Kindly consider the entry below.
Input line: Any idea what pIC50 was measured for Cc1cc(COc2ccc(Sc3ccncc3C3NC(=O)NC3=O)c(Cl)c2)ccn1 (stereo not drawn) ?
Output line: 5.00 to 6.00

---

Target System: recombinant human MMP-12 catalytic domain (Homo sapiens)
Construct: recombinant human MMP-12 catalytic domain
Sequence (P39900 106-268 limits assumed): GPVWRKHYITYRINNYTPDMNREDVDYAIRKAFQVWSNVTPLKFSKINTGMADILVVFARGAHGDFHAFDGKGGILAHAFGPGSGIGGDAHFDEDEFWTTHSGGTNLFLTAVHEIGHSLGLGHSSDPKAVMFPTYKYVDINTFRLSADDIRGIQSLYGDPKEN
Assay Summary: MMP-12 inhibitory assay (fluorogenic substrate cleavage)
Test Settings: readout at 30 minutes, 37° C., Table 1
compounds and their reported IC50

{"Compound": "O=C1NC(=O)C(c2ccncc2Sc2ccc(OCc3ccnc(CO)c3)cc2)N1 (stereo not shown) [PC-53]", "IC50": "0.01 to 0.1 µM"}
{"Compound": "CCCOc1cccc(COc2ccc(Sc3ccsc3C3NC(=O)NC3=O)cc2)c1 (stereo not shown) [TC1]", "IC50": "0.1 to 1 µM"}
{"Compound": "Cc1cc(COc2ccc(Sc3ccncc3C3NC(=O)NC3=O)cc2F)ccn1 (stereo not shown) [PC-52]", "IC50": "0.01 to 0.1 µM"}
{"Compound": "O=C1NC(=O)C(c2cnccc2Sc2ccc(OCc3ccc(CO)cc3)cc2)N1 (stereo not shown) [PC-7]", "IC50": "0.01 to 0.1 µM"}
{"Compound": "Cc1cncc(COc2ccc(Sc3cnccc3C3NC(=O)NC3=O)cc2)c1 (stereo not shown) [PC-19]", "IC50": "0.1 to 1 µM"}
{"Compound": "Cc1cccc(COc2ccc(S(=O)(=O)c3ccncc3C3NC(=O)NC3=O)cc2)c1 (stereo not shown) [PC-6]", "IC50": "0.1 to 1 µM"}

Kindly consider the entry below.
Input line: Any idea what IC50 was measured for NC(=O)c1cc(COc2ccc(Sc3ccncc3C3NC(=O)NC3=O)cc2)ccn1 (stereo not shown) [PC-59] ?
Output line: 0.1 to 1 µM
